Attribution: ChEMBL document CHEMBL3217490

# measurement notes: Dissociation constant, pKa of the compound
# Format: physicochemical
reported endpoint: pKa

In: Field request: pKa | item: `CCB(O)O`
Out: 10

In: Field request: pKa | item: OB(O)O [BORIC ACID]
Out: 10

In: Field request: pKa | item: `OB(O)c1ccc2ccccc2c1`
Out: 8.88

In: Field request: pKa | item: `OB(O)c1ccc(O)cc1`
Out: 10

In: Field request: pKa | item: `OB(O)c1cc2ccccc2s1`
Out: 7.44

In: Field request: pKa | item: `OB(O)c1cc2ccccc2o1`
Out: 7.3
